Origin of values: patent US20170258948A1

# TARGET_ENTITY: T1, human PD-L1 (Programmed Death Ligand-1), protein used in Biacore and ELISA (human, UniProt Q9NZQ7 19-239)
# T1 construct: also called hPD-L1; CD274
# TEST_DETAILS: SPR (Biacore), human PD-L1
pKd: −log10 of the molar value.
Outcome label depends on pKd relative to 10: at/above gives y, below gives n.

binder="ADX_5417_E01 (designed binder) MGVSDVPRDLEVVAATPTSLLISWRAQLSPSFYYRITYGETGGNSPVQEFTVPNDVMTATISGLKPGVDYTITVYAVTTHGVYFYSPISINYRTPCHHHHHH" assigned_label=y
binder="ATI-965 (designed binder, 10Fn3 Adnectin) MGVSDVPRDLEVVAATPTSLLISWTAYDSVDKYYRITYGETGGNSPVQEFTVGPRHHTATISGLKPGVDYTITVYAVYHTEPGYHAHMPISINYRTEIDKPSQHHHHHH" assigned_label=n
binder="ATI-966 (designed binder, 10Fn3 Adnectin) MGVSDVPRDLEVVAATPTSLLISWHRFSSIMAYYRITYGETGGNSPVQEFTVAGSVNTATISGLKPGVDYTITVYAVTIHNVSFPISINYRTEIDKPSQHHHHHH" assigned_label=y
binder="ADX_5322_A02 (designed binder) MGVSDVPRDLEVVAATPTSLLISWSYDGPIDRYYRITYGETGGNSPVQEFTVPPDQKTATISGLKPGVDYTITVYAVRLEEAHYNREFPISINYRTPCHHHHHH" assigned_label=n
binder="ATI-964 (designed binder, 10Fn3 Adnectin; also called parent of ADX_5322_A02) MGVSDVPRDLEVVAATPTSLLISWSYDGSIERYYRITYGETGGNSPVQEFTVPPDQKTATISGLKPGVDYTITVYAVRLEEAHYYRESPISINYRTEIDKPSQHHHHHH" assigned_label=n
binder="ATI-967 (designed binder, 10Fn3 Adnectin; also called parent of ADX_5417_E01) MGVSDVPRDLEVVAATPTSLLISWQGQLSPSFYYRITYGETGGNSPVQEFTVPVASGTATISGLKPGVDYTITVYAVTSHGIYFYAPISINYRTEIDKPSQHHHHHH" assigned_label=y
